- System: CCRF-CEM leukemia
- assay_method_text: NCI tumour cell line growth inhibition, 48 h
Collected TGI values appear next to each entry.
Just the number please, in µM, no unit attached.

C=CCc1ccc(Oc2cc(CC=C)c3c(c2O)O[C@@H](CO)[C@H]3c2ccc(O)c(-c3cc(CC=C)ccc3O)c2)cc1 :: 46.6

Exercise: // query TGI value for entry O=C(c1ccccc1)C1OC12C(=O)Nc1ccccc12 (stereo not given)
Solution: 25.2

###

Collected TGI values appear next to each entry.
- System: A498 renal
- assay_method_text: NCI tumour cell line growth inhibition, 48 h

Some solved entries appear below for comparison.
COC(=O)C1CCCN1C(=O)C(Cc1cn(S(=O)(=O)c2ccc(C)cc2)cn1)NC(=O)OC(C)(C)C (stereo not given) :: > 100 µM
CC(C)(C[C@H]1CN(S(=O)(=O)c2cccc(C(F)(F)F)c2)c2cc(-c3cc(F)cc(OC(F)F)c3)ccc2O1)C(=O)O :: 16.9 µM

Exercise: // query TGI value for entry O=C1CC2c3ccccc3CCC2c2ccccc21 (stereo not given)
Solution: 41.1 µM

Exercise: // query TGI value for entry CCN1CCC(O)(/C=C/c2ccc(C)cc2C)C(C(=O)/C=C/c2ccc(C)cc2C)C1 (stereo not given)
Solution: 22.7 µM

###

- System: OVCAR-8 ovarian
- assay_method_text: NCI tumour cell line growth inhibition, 48 h
assay_metric: TGI

O=C(O)[C@H](NS(=O)(=O)c1ccc([N+](=O)[O-])cc1)c1ccccc1 :: > 100 µM
O=c1oc2ccc([N+](=O)[O-])cc2c(Nc2ccc3c(c2)Oc2ccccc2O3)c1[N+](=O)[O-] :: > 100 µM
CC1=NNC(=O)C1C(CC(=O)c1c[nH]c2ccccc12)C(=O)O (stereo not given) :: > 100 µM
COc1cc(/C=C/c2ccc(OC)c(OC)c2)cc(OC)c1 :: > 100 µM

Exercise: For the record COc1ccc(OC)c2c(C(=O)O)c(Cc3ccccc3)ccc12 , what value of TGI is listed for OVCAR-8 ovarian?
Solution: > 100 µM

###

- Tested on: NCI-H226 lung
- assay_method_text: NCI tumour cell line growth inhibition, 48 h; in the data active = GI50 below about 0.43 µM; inactive = the rest
Valid outcomes are listed here; reply with one: Yes (active), No (inactive)

Some solved cases for reference:
Cc1ncc(CCCN(C)C)cc1Nc1ncc2c(n1)-c1ccc(C(F)(F)F)cc1NC(=S)C2 :: No
COc1cc(/C=C/c2cc(/C=C/c3ccc(O)c(OC)c3)n(C(=O)Nc3ccc(C)cc3C)n2)ccc1O :: Yes
COc1ccc(-c2nn(-c3ccc(NC(=O)Nc4cc(C(F)(F)F)cc(C(F)(F)F)c4)cc3)cc2-c2ccncc2)cc1Cl :: No
CCOc1cc(C(C)(C)C)ccc1C1=N[C@@](C)(c2ccc(Cl)cc2)[C@@](C)(c2ccc(Cl)cc2)N1C(=O)N1CCN(CCCS(C)(=O)=O)CC1 :: No
O=S(=O)(Nc1cc(Sc2cccc3cccnc23)c(O)c2ccccc12)c1ccccc1 :: No
COc1ccc(/C=C/C(=O)C(CC2CCC2)C(=O)/C=C/c2ccc(OC)c(OC)c2)cc1OC :: No
Cc1[nH]c2ccccc2c(=O)c1CC=C(Cl)Cl :: No
CCn1c(SCc2ccc(C)cc2)nnc1-c1nn(-c2ccc(Cl)cc2Cl)c(-c2ccc(Cl)cc2)c1C :: No
COc1cccc(C#Cc2ccccc2C#CCCCCO)c1 :: No
COc1cc2[nH]c(C(=O)c3cc(OC)c(OC)c(OC)c3)c(N)c2cc1C#CC1CC1 :: No

Exercise: Tell me the recorded outcome of this test for COc1cccc2c(=O)c3c(sc12)c(N1CCNCC1)nc1ccccc13 .
Solution: No

Exercise: Tell me the recorded outcome of this test for O=C1CSC(c2ccc(Cl)cc2Cl)N1c1ccc(F)cc1 (configuration not stated) .
Solution: No
